target: UniProt Q4FTX3; experiment: Differential scanning fluorimetry (DSF), thermal denaturation of PaHisZ; conditions: free PaHisZ 9.4 μM, Tm dependence on histidine 0–8 mM, fit to eq 5; read-out: KD (apparent equilibrium dissociation constant, PaHisZ–histidine complex)
quantity.measured: Kd (mM)
Answer with a number only, understood to be in mM.

Any idea what its Kd is? The compound is `N[C@@H](Cc1c[nH]cn1)C(=O)O`
2.8

---

Molecular target: PaATPPRT (Psychrobacter arcticus, UniProt Q4FQF7+Q4FTX3)
Construct: made in house
Sequence (Q4FTX3 whole entry): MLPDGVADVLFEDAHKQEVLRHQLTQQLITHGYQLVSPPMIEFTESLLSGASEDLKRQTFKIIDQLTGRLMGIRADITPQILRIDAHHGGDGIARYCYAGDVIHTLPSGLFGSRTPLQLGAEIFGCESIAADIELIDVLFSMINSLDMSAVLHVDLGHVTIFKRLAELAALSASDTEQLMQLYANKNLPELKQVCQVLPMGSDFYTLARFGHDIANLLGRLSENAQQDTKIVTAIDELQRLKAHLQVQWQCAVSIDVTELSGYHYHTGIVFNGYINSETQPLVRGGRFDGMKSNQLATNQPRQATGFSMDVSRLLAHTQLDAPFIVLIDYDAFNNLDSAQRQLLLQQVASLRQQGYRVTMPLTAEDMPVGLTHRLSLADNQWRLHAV
Sequence (Q4FQF7 whole entry): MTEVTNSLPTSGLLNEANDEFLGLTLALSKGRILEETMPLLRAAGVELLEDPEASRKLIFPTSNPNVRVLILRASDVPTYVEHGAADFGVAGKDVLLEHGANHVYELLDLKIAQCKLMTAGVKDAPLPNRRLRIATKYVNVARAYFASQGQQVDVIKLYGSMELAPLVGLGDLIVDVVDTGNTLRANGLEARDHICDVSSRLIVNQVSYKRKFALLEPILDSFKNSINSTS
Test: PaATPPRT activity assay, initial rates (absorbance at 290 nm, PRATP formation), inhibition by histidine
Assay type: biochemical
Conditions: Kis (slope inhibition constant), against PRPP, global fit to eq 3
Method: All assays were performed under initial rate conditions in the forward direction at 20 °C, in the presence or absence of histidine, as previously described[20] by monitoring the increase in absorbance at 290 nm due to the formation of PRATP (ε290 = 3600 M^–1 cm^–1)[23] in 1 cm path length quartz cuvettes (Hellma) in a Shimadzu UV-2600 spectrophotometer. […] Initial rates were also measured with saturating concentrations of both substrates in the presence or absence of 4 mM TIH. […]
quantity.measured: Ki (µM)
Answer in µM, number only, no unit symbol.

Look up Ki: `N[C@@H](Cc1c[nH]cn1)C(=O)O`
22

---

biological target: PaATPPRT (Psychrobacter arcticus, UniProt Q4FQF7+Q4FTX3); construct: made in house; assay: PaATPPRT activity assay, initial rates (absorbance at 290 nm, PRATP formation), inhibition by histidine; assay type: biochemical; details: Kis, against PRPP, linear regression of slope replot of individually fitted double-reciprocal curves
quantity.measured: Ki (µM)
Just the number please, in µM, no unit attached.

# Ki lookup, item N[C@@H](Cc1c[nH]cn1)C(=O)O [Histidine, L-histidine]
30

---

biological target: PaATPPRT (Psychrobacter arcticus, UniProt Q4FQF7+Q4FTX3); construct: made in house; experiment: PaATPPRT activity assay, initial rates (absorbance at 290 nm, PRATP formation), inhibition by histidine; assay type: biochemical; conditions: IC50, ADP (5.6 mM) as the substrate, 2 mM PRPP
quantity.measured: IC50 (µM)
Write down the numeric answer in µM and omit the unit.

Look up IC50 for this molecule: N[C@@H](Cc1c[nH]cn1)C(=O)O [Histidine, L-histidine]
31
